Target: Fyn SH2 variant V10 (T4V/K8L), His-tag protein (human)
Assay: ELISA
Square brackets hold non-standard residues; d marks the D form. Ends that are not written are not given here. * marks the point of attachment. Biotin = O=C1N[C@H]2[C@H](CS[C@H]2CCCCC(=O)*)N1; pY = N[C@@H](Cc1ccc(OP(=O)(O)O)cc1)C(=O)O; Ahx = NCCCCCC(=O)O
measured-metric: pEC50
# reply with the number alone; pEC50 is -log10 of concentration in mol/L

Q: Which measured pEC50 value corresponds to {Biotin-Ahx-Ahx}-EPQ[pY]EEIPIYL [biotin-ahx-ahx-EPQpYEEIPIYL] ?
Ans: 6.76
